src = patent US9453051B2

The molecules listed here are annotated with their IC50.
# system: calcineurin (Homo sapiens, UniProt P62937+P63098+Q08209)
# measurement-notes: Inhibition of the phosphatase activity of calcineurin (scintillation-proximity-assay, in presence of Cyp18);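 note: calcineurin dephosphorylation of a ³³P-labelled RII phosphopeptide, captured on streptavidin-coated wells and read by scintillation counting, with uninhibited enzyme activity taken as 100%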

Before answering, review these 5 worked examples.
- molecule: "CC[C@@H]1NC(=O)[C@H]([C@H](O)[C@H](C)Cc2nc3cc(NC(=N)N)ccc3[nH]2)N(C)C(=O)[C@H](C(C)C)N(C)C(=O)[C@H](CC(C)C)N(C)C(=O)[C@H](CC(C)C)N(C)C(=O)[C@@H](C)NC(=O)[C@H](C)NC(=O)[C@H](CC(C)C)N(C)C(=O)[C@H](C(C)C)NC(=O)[C@H](CC(C)C)N(C)C(=O)CN(C)C1=O [Compound 46]"
  system: "calcineurin (Homo sapiens, UniProt P62937+P63098+Q08209)"
  attribute-measured: "IC50"
  result: "6.63 µM"
- molecule: "CC[C@@H]1NC(=O)[C@H]([C@H](O)[C@H](C)Cc2nc3cc(C(=O)NCCN(C)C)ccc3[nH]2)N(C)C(=O)[C@H](C(C)C)N(C)C(=O)[C@H](CC(C)C)N(C)C(=O)[C@H](CC(C)C)N(C)C(=O)[C@@H](C)NC(=O)[C@H](C)NC(=O)[C@H](CC(C)C)N(C)C(=O)[C@H](C(C)C)NC(=O)[C@H](CC(C)C)N(C)C(=O)CN(C)C1=O [Compound 52]"
  system: "calcineurin (Homo sapiens, UniProt P62937+P63098+Q08209)"
  attribute-measured: "IC50"
  result: "> 10 µM"
- molecule: "CC[C@@H]1NC(=O)[C@H]([C@H](O)[C@H](C)Cc2nc3cc(S(N)(=O)=O)ccc3[nH]2)N(C)C(=O)[C@H](C(C)C)N(C)C(=O)[C@H](CC(C)C)N(C)C(=O)[C@H](CC(C)C)N(C)C(=O)[C@@H](C)NC(=O)[C@H](C)NC(=O)[C@H](CC(C)C)N(C)C(=O)[C@H](C(C)C)NC(=O)[C@H](CC(C)C)N(C)C(=O)CN(C)C1=O [Compound 34]"
  system: "calcineurin (Homo sapiens, UniProt P62937+P63098+Q08209)"
  attribute-measured: "IC50"
  result: "6.4 µM"
- molecule: "CC[C@@H]1NC(=O)[C@H]([C@H](O)[C@H](C)Cc2nc3cccc(C(=O)OC)c3[nH]2)N(C)C(=O)[C@H](C(C)C)N(C)C(=O)[C@H](CC(C)C)N(C)C(=O)[C@H](CC(C)C)N(C)C(=O)[C@@H](C)NC(=O)[C@H](C)NC(=O)[C@H](CC(C)C)N(C)C(=O)[C@H](C(C)C)NC(=O)[C@H](CC(C)C)N(C)C(=O)CN(C)C1=O [Compound 29]"
  system: "calcineurin (Homo sapiens, UniProt P62937+P63098+Q08209)"
  attribute-measured: "IC50"
  result: "> 10 µM"
- molecule: "CC[C@@H]1NC(=O)[C@H]([C@H](O)[C@H](C)Cc2nc3cc(S(=O)(=O)O)ccc3[nH]2)N(C)C(=O)[C@H](C(C)C)N(C)C(=O)[C@H](CC(C)C)N(C)C(=O)[C@H](CC(C)C)N(C)C(=O)[C@@H](C)NC(=O)[C@H](C)NC(=O)[C@H](CC(C)C)N(C)C(=O)[C@H](C(C)C)NC(=O)[C@H](CC(C)C)N(C)C(=O)CN(C)C1=O [Compound 22]"
  system: "calcineurin (Homo sapiens, UniProt P62937+P63098+Q08209)"
  attribute-measured: "IC50"
  result: "> 10 µM"

Next molecule, IC50 to be filled in.
Could you share which IC50 value was measured for CC[C@@H]1NC(=O)[C@H]([C@H](O)[C@H](C)CC2=N[C@@H]3CS[C@H](CCCCC(=O)O)[C@@H]3N2)N(C)C(=O)[C@H](C(C)C)N(C)C(=O)[C@H](CC(C)C)N(C)C(=O)[C@H](CC(C)C)N(C)C(=O)[C@@H](C)NC(=O)[C@H](C)NC(=O)[C@H](CC(C)C)N(C)C(=O)[C@H](C(C)C)NC(=O)[C@H](CC(C)C)N(C)C(=O)CN(C)C1=O [Compound 4] ? > 10 µM
